Reference for the values: ChEMBL document CHEMBL4308867

So I've got a bunch of compounds here, and I need their pKi values.
- Study Target: Mu-type opioid receptor (Homo sapiens, UniProt P35372)
- Sequence (P35372 whole entry): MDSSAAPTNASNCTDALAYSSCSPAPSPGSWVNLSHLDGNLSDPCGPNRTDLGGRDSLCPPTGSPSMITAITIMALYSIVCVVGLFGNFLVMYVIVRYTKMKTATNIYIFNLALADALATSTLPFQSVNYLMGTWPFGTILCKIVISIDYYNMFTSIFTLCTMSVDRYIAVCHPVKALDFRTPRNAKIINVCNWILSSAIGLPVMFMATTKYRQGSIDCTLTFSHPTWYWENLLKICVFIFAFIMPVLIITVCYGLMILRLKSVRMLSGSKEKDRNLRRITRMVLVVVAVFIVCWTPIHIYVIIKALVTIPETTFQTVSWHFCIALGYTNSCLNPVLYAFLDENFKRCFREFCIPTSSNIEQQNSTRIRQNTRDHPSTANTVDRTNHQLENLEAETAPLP
- Experiment Description: Displacement of [3H]-DAMGO from recombinant human mu-opioid receptor expressed in CHOK1 cells
pKi: −log10 of the molar value.

Solved cases (2 shown):
[
  {
    "Substance Smiles": "O=C(Nc1ccccc1)C1=C(O)[C@@H]2Oc3c(O)ccc4c3[C@@]23CCN(CC2CC2)[C@H](C4)[C@]3(O)C1",
    "Study Target": "Mu-type opioid receptor (Homo sapiens, UniProt P35372)",
    "pKi": "8.39 to 9.00"
  },
  {
    "Substance Smiles": "CC(C)NC(=O)C1=C(O)[C@@H]2Oc3c(O)ccc4c3[C@@]23CCN(CC2CC2)[C@H](C4)[C@]3(O)C1",
    "Study Target": "Mu-type opioid receptor (Homo sapiens, UniProt P35372)",
    "pKi": "8.28 to 8.47"
  }
]

Alright, here's another compound for you.
Exercise: Returns the measured pKi for the input compound. Input: `CC(C)(NC(=O)C1=C(O)[C@@H]2Oc3c(O)ccc4c3[C@@]23CCN(CC2CC2)[C@H](C4)[C@]3(O)C1)c1nc(-c2ccccc2)no1`
Solution: 8.95 to 8.96
